# ASSAY NAME: Single ascending-dose (SAD) study, plasma pharmacokinetics
# Assay type: in vivo, human
# CONDITION PARAMETERS: both sexes, human, plasma, oral; SAD single dose 60 mg, N = 8, mean (SD); read-out: Vz/F
MEASURE: Vd/F

Query: Any idea what Vd/F was measured for Cc1nc(-c2cnc(N3CCN(CCCc4c[nH]c5ccc(C#N)cc45)CC3)nc2)sc1C(N)=O [HEC113995PA·H2O] ?
Response: 762 L

----------
# ASSAY NAME: Multiple ascending-dose (MAD) study, plasma pharmacokinetics
# Type: in vivo, human
# CONDITION PARAMETERS: both sexes, human, plasma, oral, 40 mg, MAD 40 mg (N = 10), D1, after standard meal, median (min, max); read-out: Tmax
MEASURE: Tmax (h)
// note: answer is a bare numeric in h

Query: Any idea what Tmax was measured for Cc1nc(-c2cnc(N3CCN(CCCc4c[nH]c5ccc(C#N)cc45)CC3)nc2)sc1C(N)=O [HEC113995PA·H2O] ?
Response: 5

----------
# ASSAY NAME: Single ascending-dose (SAD) study, plasma pharmacokinetics
# Format: in vivo, human
# CONDITION PARAMETERS: both sexes, human, plasma, oral; SAD single dose 60 mg, N = 8, mean (SD); read-out: t1/2 (converted)
# Protocol: The study comprised a total of 7 dose groups (2.5, 5, 10, 20, 40, 60, and 80 mg groups, respectively). The first dose group (2.5 mg) consisted of 8 subjects, with 6 receiving HEC113995PA·H2O and 2 receiving placebo. […] Drug safety and tolerability were evaluated on day 2 and 4 in the first dose group and on day 4 and 7 in the second to seventh dose groups. […] The concentration of HEC113995PA·H2O in human plasma samples (K2EDTA) was quantitatively analyzed using the LC-MS/MS method. […]
MEASURE: half-life (min)
// note: answer is a bare numeric in min

Query: Any idea what half-life was measured for Cc1nc(-c2cnc(N3CCN(CCCc4c[nH]c5ccc(C#N)cc45)CC3)nc2)sc1C(N)=O [HEC113995PA·H2O] ?
Response: 2190

----------
# ASSAY NAME: Single ascending-dose (SAD) study, plasma pharmacokinetics
# Format: in vivo, human
# CONDITION PARAMETERS: both sexes, human, plasma, oral; SAD single dose 2.5 mg, N = 6, mean (SD); read-out: MRT
MEASURE: MRT
Answers without a unit are incomplete; give the number and then its unit.

Query: Any idea what MRT was measured for Cc1nc(-c2cnc(N3CCN(CCCc4c[nH]c5ccc(C#N)cc45)CC3)nc2)sc1C(N)=O [HEC113995PA·H2O] ?
Response: 44.8 h

----------
# ASSAY NAME: Single ascending-dose (SAD) study, plasma pharmacokinetics
# Assay type: in vivo, human
# CONDITION PARAMETERS: both sexes, human, plasma, oral; SAD single dose 10 mg, N = 8, mean (SD); read-out: t1/2 (converted)
MEASURE: half-life (h)
// note: answer is a bare numeric in h

Query: Any idea what half-life was measured for Cc1nc(-c2cnc(N3CCN(CCCc4c[nH]c5ccc(C#N)cc45)CC3)nc2)sc1C(N)=O [HEC113995PA·H2O] ?
Response: 28

----------
# ASSAY NAME: Multiple ascending-dose (MAD) study, plasma pharmacokinetics
# Type: in vivo, human
# CONDITION PARAMETERS: both sexes, human, plasma, oral; MAD 40 mg (N = 10), D10, QD after standard meal, mean (SD)
MEASURE: half-life (min)
// note: answer is a bare numeric in min

Query: Any idea what half-life was measured for Cc1nc(-c2cnc(N3CCN(CCCc4c[nH]c5ccc(C#N)cc45)CC3)nc2)sc1C(N)=O [HEC113995PA·H2O] ?
Response: 1850

----------
# ASSAY NAME: Food effect study, plasma pharmacokinetics
# Type: in vivo, human
# CONDITION PARAMETERS: both sexes, human, plasma, po, 20 mg, single oral 20 mg, fed with high-fat, high-calorie meal, N = 18, median (min, max)
MEASURE: Tmax (h)
// note: answer is a bare numeric in h

Query: Any idea what Tmax was measured for Cc1nc(-c2cnc(N3CCN(CCCc4c[nH]c5ccc(C#N)cc45)CC3)nc2)sc1C(N)=O [HEC113995PA·H2O] ?
Response: 5

----------
# ASSAY NAME: Single ascending-dose (SAD) study, plasma pharmacokinetics
# Type: in vivo, human
# CONDITION PARAMETERS: both sexes, human, oral; SAD single dose 20 mg, N = 8, plasma, mean (SD); read-out: Cmax
MEASURE: Cmax (ng/mL)
// note: answer is a bare numeric in ng/mL

Query: Any idea what Cmax was measured for Cc1nc(-c2cnc(N3CCN(CCCc4c[nH]c5ccc(C#N)cc45)CC3)nc2)sc1C(N)=O [HEC113995PA·H2O] ?
Response: 40.6

----------
# ASSAY NAME: Food effect study, plasma pharmacokinetics
# Type: in vivo, human
# CONDITION PARAMETERS: both sexes, human, plasma, po, 20 mg, single oral 20 mg, fed with standard meal, N = 18, mean (SD)
MEASURE: Cmax (ng/mL)
// note: answer is a bare numeric in ng/mL

Query: Any idea what Cmax was measured for Cc1nc(-c2cnc(N3CCN(CCCc4c[nH]c5ccc(C#N)cc45)CC3)nc2)sc1C(N)=O [HEC113995PA·H2O] ?
Response: 106

----------
# ASSAY NAME: Multiple ascending-dose (MAD) study, plasma pharmacokinetics
# Assay type: in vivo, human
# CONDITION PARAMETERS: both sexes, human, plasma, oral; MAD 20 mg (N = 9), D10, QD after standard meal, mean (SD)
MEASURE: AUC(0-inf)
Answers without a unit are incomplete; give the number and then its unit.

Query: Any idea what AUC(0-inf) was measured for Cc1nc(-c2cnc(N3CCN(CCCc4c[nH]c5ccc(C#N)cc45)CC3)nc2)sc1C(N)=O [HEC113995PA·H2O] ?
Response: 5470 ng·h/mL

----------
# ASSAY NAME: Food effect study, plasma pharmacokinetics
# Format: in vivo, human
# CONDITION PARAMETERS: both sexes, human, plasma, po, 20 mg, single oral 20 mg, fasted, N = 18, mean (SD); read-out: Vz/F
# Procedure: A total of 18 healthy subjects of both genders, were assigned randomly to three sequences A, B, and C (n = 6). All subjects received HEC113995PA·H2O tablets, with a total of 3 times administered during the trial, once per cycle, and a washout period of ≥11 days. […] Safety and tolerability were assessed on days 4 and 28. […] The concentration of HEC113995PA·H2O in human plasma samples (K2EDTA) was quantitatively analyzed using the LC-MS/MS method. […]
MEASURE: Vd/F (L)
// note: answer is a bare numeric in L

Query: Any idea what Vd/F was measured for Cc1nc(-c2cnc(N3CCN(CCCc4c[nH]c5ccc(C#N)cc45)CC3)nc2)sc1C(N)=O [HEC113995PA·H2O] ?
Response: 447

----------
# ASSAY NAME: Multiple ascending-dose (MAD) study, plasma pharmacokinetics
# Type: in vivo, human
# CONDITION PARAMETERS: both sexes, human, plasma, oral; MAD 40 mg (N = 10), D10, QD after standard meal, mean (SD); read-out: Css_min
MEASURE: concentration at 10 day (ng/mL)
// note: answer is a bare numeric in ng/mL

Query: Any idea what concentration at 10 day was measured for Cc1nc(-c2cnc(N3CCN(CCCc4c[nH]c5ccc(C#N)cc45)CC3)nc2)sc1C(N)=O [HEC113995PA·H2O] ?
Response: 132

----------
# ASSAY NAME: Multiple ascending-dose (MAD) study, plasma pharmacokinetics
# Format: in vivo, human
# CONDITION PARAMETERS: both sexes, human, plasma, oral; MAD 40 mg (N = 10), D10, QD after standard meal, mean (SD)
MEASURE: AUC (ng·h/mL)
// note: answer is a bare numeric in ng·h/mL

Query: Any idea what AUC was measured for Cc1nc(-c2cnc(N3CCN(CCCc4c[nH]c5ccc(C#N)cc45)CC3)nc2)sc1C(N)=O [HEC113995PA·H2O] ?
Response: 5730

----------
# ASSAY NAME: Multiple ascending-dose (MAD) study, plasma pharmacokinetics
# Assay type: in vivo, human
# CONDITION PARAMETERS: both sexes, human, plasma, oral; MAD 20 mg (N = 9), D1, after standard meal, mean (SD); read-out: MRT0-∞
MEASURE: MRT inf (h)
// note: answer is a bare numeric in h

Query: Any idea what MRT inf was measured for Cc1nc(-c2cnc(N3CCN(CCCc4c[nH]c5ccc(C#N)cc45)CC3)nc2)sc1C(N)=O [HEC113995PA·H2O] ?
Response: 25.3

----------
# ASSAY NAME: Multiple ascending-dose (MAD) study, plasma pharmacokinetics
# Format: in vivo, human
# CONDITION PARAMETERS: both sexes, human, plasma, oral, 40 mg, following a single administration, 10, 20, 40 mg groups; read-out: median time to peak concentration (Tmax), range
MEASURE: Tmax

Query: Any idea what Tmax was measured for Cc1nc(-c2cnc(N3CCN(CCCc4c[nH]c5ccc(C#N)cc45)CC3)nc2)sc1C(N)=O [HEC113995PA·H2O] ?
Response: 5 to 5.5 h
